Each entry below carries its measured GI50, system: BaF3-TEL-JAK3.

{"givenSmiles": "C=CC(=O)Nc1cc(Nc2ncc(Cl)c(Nc3ccccc3C(=O)NC)n2)c(OC)cc1N1CCN(C2CCCCC2)CC1", "GI50": "58 nM"}
{"givenSmiles": "C=CC(=O)Nc1cc(Nc2ncc(Cl)c(Nc3ccccc3C(=O)NC)n2)c(OC)cc1N1CCN(C2CCN(C)CC2)CC1", "GI50": "290 nM"}
{"givenSmiles": "C=CC(=O)Nc1cc(Nc2ncc(Cl)c(Nc3ccccc3C(=O)NC)n2)c(OC)cc1N1CCN(C)CC1", "GI50": "59 nM"}
{"givenSmiles": "C=CC(=O)Nc1cc(Nc2ncc(Cl)c(Nc3ccccc3C(=O)NC)n2)c(OC)cc1N1CCN(CC)CC1", "GI50": "45 nM"}
{"givenSmiles": "C=CC(=O)Nc1cc(Nc2ncc(Cl)c(Nc3ccccc3C(=O)NC)n2)c(OC)cc1N1CCN(C(C)C)CC1", "GI50": "37 nM"}
{"givenSmiles": "C=CC(=O)Nc1cc(Nc2ncc(Cl)c(Nc3ccccc3C(=O)NC)n2)c(OC)cc1N1CCC(N2CCOCC2)CC1", "GI50": "110 nM"}
{"givenSmiles": "C=CC(=O)Nc1cc(Nc2ncc(Cl)c(Nc3ccccc3C(=O)NC)n2)c(OC)cc1N(C)CCN(C)C", "GI50": "9 nM"}
{"givenSmiles": "C=CC(=O)Nc1cc(Nc2ncc(Cl)c(Nc3ccccc3C(=O)NC)n2)c(OC)cc1N1CCN(C(C)=O)CC1", "GI50": "270 nM"}

* * *

Each entry below carries its measured GI50, system: BaF3.

{"compound": "C=CC(=O)Nc1cc(Nc2ncc(C)c(Nc3ccccc3S(=O)(=O)C(C)C)n2)c(OC)cc1N1CCN(CC)CC1 [Compound 84]", "GI50": "6600 nM"}
{"compound": "C=CC(=O)Nc1cc(Nc2ncc(Cl)c(Nc3ccccc3C(=O)NC)n2)c(OC)cc1N1CCN(C)CC1 [Compound 64]", "GI50": "2900 nM"}
{"compound": "C=CC(=O)Nc1cc(Nc2ncc(Cl)c(Nc3ccccc3S(=O)(=O)C(C)C)n2)c(OC)cc1N1CCN(CCOC)CC1 [Compound 13]", "GI50": "1400 nM"}
{"compound": "C=CC(=O)Nc1cc(Nc2ncc(Cl)c(Nc3ccccc3S(=O)(=O)C(C)C)n2)c(OC)cc1N1CCN(S(C)(=O)=O)CC1 [Compound 5]", "GI50": "2800 nM"}

* * *

Item-by-item account of log10 of GI50
System: HCC827
Test: Growth of cancer cells (Cell Titer-Glo viability), HCC827
Format: cell-based
Settings: Homo sapiens; HCC827 (mutant EGFR del19), 72 hrs
propertyName: log10 of GI50 (log10 of the value in nM)

{"compound": "C=CC(=O)Nc1cc(Nc2ncc(Cl)c(Nc3ccccc3S(=O)(=O)C(C)C)n2)c(OC)cc1N1CCN(S(C)(=O)=O)CC1", "resultValue": 1.64}
{"compound": "C=CC(=O)Nc1cc(Nc2ncc(Cl)c(Nc3ccccc3C(=O)NC)n2)c(OC)cc1N1CCN(CC)CC1", "resultValue": 1.11}
{"compound": "C=CC(=O)Nc1cc(Nc2ncc(Cl)c(Nc3ccccc3C(=O)NC)n2)c(OC)cc1N1CCN(C2CCCCC2)CC1", "resultValue": 2.15}
{"compound": "C=CC(=O)Nc1cc(Nc2ncc(Cl)c(Nc3cccc(C(F)(F)F)c3)n2)c(OC)cc1N1CCN(C)CC1", "resultValue": 1.66}
{"compound": "C=CC(=O)Nc1cc(Nc2ncc(Cl)c(Nc3ccccc3C(=O)NC)n2)c(OC)cc1N(C)CCN(C)C", "resultValue": 1.20}
{"compound": "C=CC(=O)Nc1cc(Nc2ncc(Cl)c(Nc3ccccc3S(=O)(=O)C(C)C)n2)c(OC)cc1N1CCN(C2CCCCC2)CC1", "resultValue": 1.58}
{"compound": "C=CC(=O)Nc1cc(Nc2ncc(Cl)c(Nc3ccccc3S(=O)(=O)C(C)C)n2)c(OC)cc1N1CCN(CC)CC1", "resultValue": 0.48}
{"compound": "C=CC(=O)Nc1cccc(Oc2nc(Nc3ccc(N4CCN(C)CC4)cc3OC)ncc2Cl)c1 [WZ4002, reference compound]", "resultValue": 0.08}
{"compound": "COc1cc(N2CCC(N3CCN(C)CC3)CC2)ccc1Nc1ncc(Cl)c(Nc2ccccc2S(=O)(=O)C(C)C)n1 [TAE-684, reference compound]", "resultValue": 2.57}
{"compound": "CCC(=O)Nc1cc(Nc2ncc(Cl)c(Nc3ccccc3S(=O)(=O)C(C)C)n2)c(OC)cc1N1CCC(N2CCN(C)CC2)CC1", "resultValue": 2.18}
{"compound": "C=CC(=O)Nc1cc(Nc2ncc(Cl)c(Nc3ccccc3P(C)(C)=O)n2)c(OC)cc1N1CCC(N(C)C)CC1", "resultValue": 1.18}
{"compound": "C=CC(=O)Nc1cc(Nc2ncc(Cl)c(Nc3ccccc3S(=O)(=O)C(C)C)n2)c(OC)cc1N1CCN(CCF)CC1", "resultValue": 1.54}
{"compound": "C=CC(=O)Nc1cc(Nc2ncc(Cl)c(Nc3ccccc3S(=O)(=O)C(C)C)n2)c(OC)cc1N1CCN[C@H](C)C1", "resultValue": 1.81}
{"compound": "C=CC(=O)Nc1cc(Nc2ncc(Cl)c(Nc3ccccc3S(=O)(=O)C(C)C)n2)c(OC)cc1N1CCN[C@@H](C)C1", "resultValue": 1.77}

Reference source for all entries: patent US10350210B2
